- test_target: HIV-1 Env of isolate 92RW008 (pseudovirus) (HIV-1)
- measurement_notes: cell-based or functional assay
Reported IC50 (µg/mL), pseudovirus neutralization values are given for each entry in this list.
property: IC50 (µg/mL), pseudovirus neutralization

>>> value_measured("PGT-123 (4858_P08) (antibody, V domains shown) VH: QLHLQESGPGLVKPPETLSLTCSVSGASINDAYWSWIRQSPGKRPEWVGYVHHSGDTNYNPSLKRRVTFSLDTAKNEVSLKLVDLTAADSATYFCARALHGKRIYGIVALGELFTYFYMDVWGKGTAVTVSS VL: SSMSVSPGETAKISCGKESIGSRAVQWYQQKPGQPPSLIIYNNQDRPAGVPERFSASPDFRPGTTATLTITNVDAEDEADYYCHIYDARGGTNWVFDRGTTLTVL")
0.003
>>> value_measured("PGT-127 (5145_B14) (antibody, V domains shown) VH: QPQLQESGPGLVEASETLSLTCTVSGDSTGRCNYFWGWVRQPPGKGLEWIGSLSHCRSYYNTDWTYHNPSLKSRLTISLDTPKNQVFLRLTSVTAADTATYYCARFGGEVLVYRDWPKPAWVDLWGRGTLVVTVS VL: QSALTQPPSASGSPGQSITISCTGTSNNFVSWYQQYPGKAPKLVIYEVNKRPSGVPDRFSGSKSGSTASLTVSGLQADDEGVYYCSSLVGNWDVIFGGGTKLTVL")
0.012
>>> value_measured("PGT-126 (5141_B17) (antibody, V domains shown) VH: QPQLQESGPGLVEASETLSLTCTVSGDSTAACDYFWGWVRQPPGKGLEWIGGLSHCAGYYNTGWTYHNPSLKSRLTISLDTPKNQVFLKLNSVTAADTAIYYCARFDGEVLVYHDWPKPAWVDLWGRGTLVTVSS VL: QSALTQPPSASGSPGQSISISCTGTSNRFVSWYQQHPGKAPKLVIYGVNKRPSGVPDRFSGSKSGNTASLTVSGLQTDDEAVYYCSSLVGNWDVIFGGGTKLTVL")
0.008
>>> value_measured("PGT-125 (5123_A06) (antibody, V domains shown) VH: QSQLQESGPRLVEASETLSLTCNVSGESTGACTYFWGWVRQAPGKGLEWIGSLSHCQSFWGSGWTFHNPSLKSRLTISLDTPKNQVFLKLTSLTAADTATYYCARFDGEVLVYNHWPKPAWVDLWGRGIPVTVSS VL: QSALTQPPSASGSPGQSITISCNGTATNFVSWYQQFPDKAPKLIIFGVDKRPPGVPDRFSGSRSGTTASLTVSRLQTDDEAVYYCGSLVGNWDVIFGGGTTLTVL")
0.004
